B1: library; a variant is named by its letters at N, in order (parent)
chain: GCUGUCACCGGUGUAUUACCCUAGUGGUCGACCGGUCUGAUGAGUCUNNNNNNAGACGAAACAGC

variants of: B1; test: normalized RNA/DNA level without ligand (relative to sTRSVctl = 100) (log10 (% of sTRSVctl)); ligand: hypoxanthine (xanthine aptamer); higher = less ribozyme self-cleavage, higher mRNA level; conditions: HEK293T, reporter: mCherry (pCS4076), ligand present: no
For each of the variants below, state its normalized RNA/DNA level without ligand (log10).
Give bare numbers.

A selection of reference data follows.
Asked: Find the recorded normalized RNA/DNA level without ligand (log10) belonging to GCUGUCACCGGUGUAUUACCCUAGUGGUCGACCGGUCUGAUGAGUCUCAUCGAAGACGAAACAGC [CAUCGA] and report it.
Given back: 1.84

Asked: Find the recorded normalized RNA/DNA level without ligand (log10) belonging to GCUGUCACCGGUGUAUUACCCUAGUGGUCGACCGGUCUGAUGAGUCUAGCUUUAGACGAAACAGC [AGCUUU] and report it.
Given back: 1.91

Asked: Find the recorded normalized RNA/DNA level without ligand (log10) belonging to GCUGUCACCGGUGUAUUACCCUAGUGGUCGACCGGUCUGAUGAGUCUGUAUCGAGACGAAACAGC [GUAUCG] and report it.
Given back: 1.57

Hi there! I need normalized RNA/DNA level without ligand (log10) for each item below, if you can.
1. GCUGUCACCGGUGUAUUACCCUAGUGGUCGACCGGUCUGAUGAGUCUUCGAAAAGACGAAACAGC [UCGAAA]
2. GCUGUCACCGGUGUAUUACCCUAGUGGUCGACCGGUCUGAUGAGUCUGAAACGAGACGAAACAGC [GAAACG]
3. GCUGUCACCGGUGUAUUACCCUAGUGGUCGACCGGUCUGAUGAGUCUCCUAUGAGACGAAACAGC [CCUAUG]
4. GCUGUCACCGGUGUAUUACCCUAGUGGUCGACCGGUCUGAUGAGUCUAUUGUGAGACGAAACAGC [AUUGUG]
5. GCUGUCACCGGUGUAUUACCCUAGUGGUCGACCGGUCUGAUGAGUCUCGCUACAGACGAAACAGC [CGCUAC]

Given back:
[1.4, 1.51, 1.86, 1.39, 1.74]

Hi there! I need normalized RNA/DNA level without ligand (log10) for each item below, if you can.
1. GCUGUCACCGGUGUAUUACCCUAGUGGUCGACCGGUCUGAUGAGUCUUGAAGUAGACGAAACAGC [UGAAGU]
2. GCUGUCACCGGUGUAUUACCCUAGUGGUCGACCGGUCUGAUGAGUCUCUCUCAAGACGAAACAGC [CUCUCA]

Given back:
1.55
1.91

Hi there! I need normalized RNA/DNA level without ligand (log10) for each item below, if you can.
1. GCUGUCACCGGUGUAUUACCCUAGUGGUCGACCGGUCUGAUGAGUCUCGCGGGAGACGAAACAGC [CGCGGG]
2. GCUGUCACCGGUGUAUUACCCUAGUGGUCGACCGGUCUGAUGAGUCUCUCUGAAGACGAAACAGC [CUCUGA]
3. GCUGUCACCGGUGUAUUACCCUAGUGGUCGACCGGUCUGAUGAGUCUUUGGCAAGACGAAACAGC [UUGGCA]

Given back:
1.36
1.94
1.91

Hi there! I need normalized RNA/DNA level without ligand (log10) for each item below, if you can.
1. GCUGUCACCGGUGUAUUACCCUAGUGGUCGACCGGUCUGAUGAGUCUACUACAAGACGAAACAGC [ACUACA]
2. GCUGUCACCGGUGUAUUACCCUAGUGGUCGACCGGUCUGAUGAGUCUUCGCACAGACGAAACAGC [UCGCAC]

Given back:
1. 1.84
2. 1.83
